Test system: HepG2-CANX-COX4
Experiment: phenotypically active (imaging signature differs from DMSO and reproducible) at any of 0.3-9 uM (binary (1 = active, 0 = inactive)); higher = active
Experimental Parameters: treatment time: 24 h
Structures can show the parent of a compound that is named as a salt.
Answer with one of the outcomes given here: active, inactive

Please state the recorded outcome for this compound: Cc1cc(-c2ccc(/C=C3\S/C(=N\c4ccc(Cl)c(C(=O)O)c4)NC3=O)o2)c([N+](=O)[O-])cc1C inactive

Recorded test outcome, item OC[C@H]1NC[C@H](O)[C@@H](O)[C@@H]1O inactive

GET /call?item= CC(CCc1ccc(O)cc1)NCCc1ccc(O)c(O)c1 (centres undefined) [Dobutamine hydrochloride] returns the recorded outcome of this test. inactive

Would you mind telling me which call this test gave Cc1cc(Nc2cc(C)c(C#N)c(NC(C)CCCC(C)(C)O)n2)n[nH]1 (centres undefined) [TC-A 2317 hydrochloride] ? active

* * *

System: A549-GM130-SQSTM1
Experiment: phenotypically active (imaging signature differs from DMSO and reproducible) at any of 0.3-9 uM (binary (1 = active, 0 = inactive)); higher = active
Experimental Parameters: treatment time: 24 h
Structures can show the parent of a compound that is named as a salt.
Use one of these outcomes when replying: y (active), n (inactive)

Each molecule tested received a call. Report the one for O=c1c(O)c(-c2ccc(O)c(O)c2)oc2cc(O)cc(O)c12 [Quercetin] . n

What call does the record list for CN1CCc2cccc3c2[C@H]1Cc1ccc(O)c(O)c1-3 [r(-)-apomorphine] ? y

What call does the record list for O=C(O)[C@H](O)[C@@H](O)[C@H](O[C@@H]1O[C@H](CO)[C@H](O)[C@H](O)[C@H]1O)[C@H](O)CO [Lactobionic acid] ? n

Assay outcome for c1ccc2c(c1)CCCC2C1=NCCN1 (stereo not drawn) [tetrahydrozoline] : what was it? n

Look up the recorded call for COc1ccc2cc1Oc1ccc(cc1)C[C@H]1c3cc(c(OC)cc3CCN1C)Oc1c(OC)c(OC)cc3c1[C@H](C2)N(C)CC3 [Tetrandrine] in this test. y

Called result for CC(C)C(=O)Nc1ncc(-c2cc(C(F)F)nn2-c2c(Cl)cccc2Cl)s1 n

Could you kindly confirm the outcome this assay logged for COC(=O)c1c(-c2cc(OC)c(OC)c(OC)c2)c2ccnc(OCc3ncccn3)c2c(=O)n1Cc1ccnc(C)c1 [T 0156 hydrochloride] ? n

What outcome does the record of this test show for O=C(/C=C/c1ccc(OCc2ccccc2)cc1)c1c(O)cc(OCc2ccccc2)cc1OCc1ccccc1 [4,2,4'-Tribenzyloxy-6'-hydroxychalcone] ? n

* * *

Test system: A549-ACTB-RAB5A
Experiment: phenotypically active (imaging signature differs from DMSO and reproducible) at any of 0.3-9 uM (binary (1 = active, 0 = inactive)); higher = active
Experimental Parameters: treatment time: 24 h
Choose the fitting class; nothing outside 1.0 = active, 0.0 = inactive is accepted.

Each compound tested received a call. Report the one for CCCCN1CCCCC1C(=O)Nc1c(C)cccc1C (stereo not drawn) . 0.0

Assay result, entry COc1ccc2c(c1)c(CC(=O)O)c(C)n2C(=O)c1ccc(Cl)cc1 — outcome? 0.0

Kindly provide the recorded test outcome for the following compound: CC(=O)N1CCN(c2ccc(OC[C@H]3CO[C@](Cn4ccnc4)(c4ccc(Cl)cc4Cl)O3)cc2)CC1 1.0

Hey, what did the test say about COc1cc(N2CCOCC2)ccc1Nc1ncc(Cl)c(Nc2ccccc2NS(C)(=O)=O)n1 ? 1.0

Assay result, entry COCC(=O)O[C@]1(CCN(C)CCCc2nc3ccccc3[nH]2)CCc2cc(F)ccc2[C@@H]1C(C)C — outcome? 1.0

In this assay, the call recorded for O=C1CCc2ccc(OCCCCN3CCN(c4cccc(Cl)c4Cl)CC3)cc2N1 was what? 0.0

Short answer needed: outcome of this test for COc1ccc2c(c1)N(C(C)=O)[C@H]1[C@@H]3CO[C@H](C)[C@@H]4CN5CC[C@]21[C@@H]5C[C@H]34 ? 0.0

I'd appreciate the recorded outcome for Nc1ccc(O)c(C(=O)O)c1 from this test. 0.0

* * *

Test system: WPMY1-TUBA1B-RELA
Experiment: lowest phenotypically active concentration; higher = less potent
Experimental Parameters: treatment time: 24 h
Recorded Metric: lowest phenotypically active concentration (µM)
Entry rule: numbers only, all in µM.

So what lowest phenotypically active concentration did NC(=O)Nc1sc(-c2ccc(F)cc2)cc1C(N)=O get with WPMY1-TUBA1B-RELA? 9

# query: lowest phenotypically active concentration | item O=C1c2c(O)cccc2Cc2cccc(O)c21 | system: WPMY1-TUBA1B-RELA 9

Requested read-out lowest phenotypically active concentration, target or system WPMY1-TUBA1B-RELA, entry C=C1C(=O)O[C@@H]2C=C(C)CCC=C(C)CC[C@@H]12 [Costunolide] 9

* * *

Exercise: state measured phenotypically active for each of the compounds provided.
Tested on: HepG2-ACTB-RAB5A
Experiment: phenotypically active (imaging signature differs from DMSO and reproducible) at any of 0.3-9 uM (binary (1 = active, 0 = inactive)); higher = active
Experimental Parameters: treatment time: 24 h
Counter-ions that a name gives are not always drawn.
Lab note: write the figure by itself, no unit.

Which phenotypically active reading was recorded for the compound CCC(NC(C)C)C(O)c1ccc(O)c(O)c1 (centres undefined) [isoetharine] ? 0

Entry O=C(O)c1ccc(Nc2ncc3c(n2)-c2ccc(Cl)cc2C(c2c(F)cccc2F)=NC3)cc1 : reported phenotypically active = ? 1

Please report the recorded phenotypically active for COc1ncc2cc(C(=O)Nc3cc(C(=O)NCc4cccc(Cl)c4)ccc3Cl)c(=O)[nH]c2n1 . 0

Need phenotypically active, item CC(C)N(CCCNC(=O)Nc1ccc(C(C)(C)C)cc1)C[C@H]1O[C@@H](n2ccc3c(N)ncnc32)[C@H](O)[C@@H]1O 1

What value of measured phenotypically active is listed for CC(=O)O[C@@H]1C[C@H]2C(C)(C)C(=O)C=C[C@]2(C)[C@H]2CC[C@@]3(C)[C@H](c4ccoc4)OC(=O)[C@H]4O[C@]43[C@@]21C [gedunin] ? 0

# phenotypically active lookup, item COc1ccc2c3c(c(=O)n(C)c2c1OC)C=CC(C)(C)O3 [Veprisine] 0

For the compound shown here, O=S(=O)(N[C@H](CO)C(C(F)(F)F)C(F)(F)F)c1ccc(Cl)s1 [begacestat] , give the reported phenotypically active. 0

// phenotypically active lookup, key: Cc1cc(C)c(C)c(S(=O)(=O)Nc2ccc(N3CC[C@H](C(=O)O)C3)c3ccccc23)c1C 0

What phenotypically active value was documented for this compound, CC(=O)Nc1ccc(NC(=S)NC(=O)c2ccc(C(C)(C)C)cc2)cc1 [Tenovin-1] ? 0

Data request, read-out phenotypically active, for Cc1ccccc1Sc1ccc(/C=C2/SC(=S)NC2=O)cc1[N+](=O)[O-] 0

Give the measured phenotypically active of CC(C)NCCCn1c(Sc2cc3c(cc2I)OCO3)nc2c(N)ncnc21 . 1

# phenotypically active lookup, item CCCc1nc(C)c2c(C)nc3ccc(OC)nc3n12 0

I am curious: what phenotypically active value has been reported for COc1ccc(CCNCc2ccc(OCc3ccc(Cl)nc3)c(OC)c2)cc1OC [SBE 13 hydrochloride] ? 1

What does the record list as phenotypically active for O=C1c2ccccc2C(Cc2ccncc2)(Cc2ccncc2)c2ccccc21 ? 0

Consider the compound CN(CCOc1ccc(NS(C)(=O)=O)cc1)CCc1ccc(NS(C)(=O)=O)cc1 [dofetilide] and give its measured phenotypically active. 0

Could you tell me which phenotypically active is on file for C=CC(=O)Nc1cccc(CN2C(=O)N(c3c(Cl)c(OC)cc(OC)c3Cl)Cc3cnc(NCCCCN(CC)CC)nc32)c1 [FIIN 1 hydrochloride] ? 1

Value lookup for phenotypically active; key = COc1ccc(CCc2nc3c(C)c(-c4c(C)noc4C)c(C)cc3n2CCN2CCOCC2)cc1 0

Which phenotypically active value is on record for CC(C)[N+](C)(CCOC(=O)C1c2ccccc2Oc2ccccc21)C(C)C [propantheline] ? 0

Requested read-out: phenotypically active. Entry: O=C(NCCCNc1nc(Nc2cccc(NC(=O)N3CCCC3)c2)ncc1I)c1cccs1 1

* * *

System: A549-ACTB-RAB5A
Experiment: lowest phenotypically active concentration; higher = less potent
Experimental Parameters: treatment time: 24 h
Where a name gives a salt, the structure may show the parent alone.
Record form. Attribute: lowest phenotypically active concentration. Fill in for each entry.
Write the answer as a number in µM, unit excluded.

Please report the recorded lowest phenotypically active concentration for CNCCCN1c2ccccc2CCc2ccccc21 [desipramine] . 9

Could you tell me which lowest phenotypically active concentration is on file for C=CCc1ccc(O)c(-c2ccc(O)c(CC=C)c2)c1 [Honokiol] ? 9

Which lowest phenotypically active concentration value is on record for COc1cc2ncnc(Nc3ccc(Cl)cc3F)c2cc1OC ? 9

Endpoint output: lowest phenotypically active concentration of NS(=O)(=O)c1nn2cc(-c3ccccc3)nc2s1 . Value? 9

Which lowest phenotypically active concentration value belongs to CC(C)(C)c1ccc2cc(C#N)c(C#N)cc2c1 ? 3

Record request: lowest phenotypically active concentration value, item COc1cc(Br)c(Nc2nc(-c3c(C)nc4ncccn34)cs2)c(Br)c1 1

Requested field: lowest phenotypically active concentration. Item: CN1CCC(CN2c3ccccc3Sc3ccccc32)C1 (configuration not stated) [methdilazine] 9

What does the record list as lowest phenotypically active concentration for O=C1NC(=O)[C@@H](c2cn3c4c(cccc24)CCC3)[C@@H]1c1c[nH]c2ccccc12 [tivantinib] ? 1

Using the record for Clc1ccccc1C(c1ccccc1)(c1ccccc1)n1ccnc1 [Clotrimazole] , report its lowest phenotypically active concentration. 9

# query: lowest phenotypically active concentration of entry O=C(NCCCNc1nc(Nc2cccc(NC(=O)N3CCCC3)c2)ncc1I)c1cccs1 1

Return reported lowest phenotypically active concentration; argument: CC(C)(N)c1cc(C(=O)N[C@@H]2CCc3ccc(OC4=C5CCC(=O)N=C5NC=C4)cc3C2)cc(C(F)(F)F)c1 [ML 786 dihydrochloride] 1

Returns the measured lowest phenotypically active concentration for the input molecule. Input: COc1cc2c(cc1OC)-c1c/c(=N/c3c(C)cc(C)cc3C)n(C)c(=O)n1CC2 [Trequinsin hydrochloride] 9

Consider the molecule COc1cc(C(=O)N2CCC(N3CCN(C)CC3)CC2)ccc1Nc1ncc2c(n1)N(C)c1ccccc1C(=O)N2C and give its measured lowest phenotypically active concentration. 3

Item CC1CNCCN1S(=O)(=O)c1cccc2cnccc12 (configuration not stated) [H-7 dihydrochloride] has what recorded lowest phenotypically active concentration? 9

Can you share its lowest phenotypically active concentration? I mean this molecule: Cc1cc2nc(NCCCO)n(CC(=O)c3cc(C(C)(C)C)c(O)c(C(C)(C)C)c3)c2cc1C 3

I am curious: what lowest phenotypically active concentration value has been reported for Nc1ncnc2c1nc(Cl)n2C1O[C@H](CO)[C@@H](O)[C@H]1O (some centres not stated) [8-Chloroadenosine] ? 1

Given the entry Cc1ccc(S(=O)(=O)c2ccc([N+](=O)[O-])o2)cc1 , report its measured lowest phenotypically active concentration. 3

Recorded lowest phenotypically active concentration of CCCS(=O)(=O)Nc1ccc(F)c(C(=O)c2c[nH]c3ncc(Cl)cc23)c1F , please. 3

Param item = NC(=O)[C@@H](CCC(F)(F)F)N(Cc1ccc(-c2ncon2)cc1F)S(=O)(=O)c1ccc(Cl)cc1 [avagacestat] ; retrieve measured lowest phenotypically active concentration. 9

Looking for the measured lowest phenotypically active concentration of N#CC[C@@H](C1CCCC1)n1cc(-c2ncnc3[nH]ccc23)cn1 [ruxolitinib-(S)] , can you help? 3

Field request: lowest phenotypically active concentration | item: c1cc(-c2cc(C3CCNCC3)[nH]n2)ccn1 9

Which lowest phenotypically active concentration is reported for this molecule? S=C(S)N1CCCC1 [Pyrrolidinedithiocarbamate ammonium] 3

Recorded lowest phenotypically active concentration of Oc1cccc(Nc2ccnc3cc(-c4cccc(CN5CCOCC5)c4)sc23)c1 [LCB 03-0110 dihydrochloride] , please. 1

Report lowest phenotypically active concentration for C[C@@H]1CCN(C(=O)CC#N)C[C@@H]1N(C)c1ncnc2[nH]ccc12 please. 9

# lookup: lowest phenotypically active concentration of CN(C)CCCN1c2ccccc2Sc2ccc(Cl)cc21 [chlorpromazine] 3

For the molecule shown here, Cc1cnc(NC(=O)Nc2cc(Br)c(C)cc2OC[C@@H]2CNCCO2)cn1 , give the reported lowest phenotypically active concentration. 3

Look up lowest phenotypically active concentration for this molecule: O=C1Cc2cc(CCN3CCN(c4nsc5ccccc45)CC3)c(Cl)cc2N1 [ziprasidone] 9
